# experimental-target: T1, TGFβ3 (R&D Systems) (Homo sapiens (Human), UniProt P10600 301-412, Active TGFβ3 is a disulfide-linked homodimer of this chain; one copy is given.)
# T1 sequence: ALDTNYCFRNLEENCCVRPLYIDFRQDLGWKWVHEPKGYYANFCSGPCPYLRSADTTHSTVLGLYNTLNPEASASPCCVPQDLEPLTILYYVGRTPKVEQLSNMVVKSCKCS
# assay-comment: cell-based or functional assay
Would you kindly list pSmad-3, IC50 for each of these binders?
# number only, unit nM dropped from output

The recorded pSmad-3, IC50 for affinity matured HcLb 237 (antibody, V domains shown, full IgG; also called canHcLb/55SW/100DY/57/SV + canHcLb/237ND/242TS) VH: EVQLVQSGAEVKKPGASVKVSCKTSGYTFITYWMNWVRQAPGAGLDWMGQIFPAWGVTNYNEMFEGRVTLTADTSTSTAYMELSSLRAGDIAVYYCARGYGNYALDAMDYWGQGTLVTVSS VL: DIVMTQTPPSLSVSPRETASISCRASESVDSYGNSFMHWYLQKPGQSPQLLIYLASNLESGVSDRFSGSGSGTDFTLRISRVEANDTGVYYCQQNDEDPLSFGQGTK is 1.05

Notebook: affinity matured HcLb 73 (antibody, V domains shown) VH: EVQLVQSGAEVKKPGASVKVSCKTSGYTFITYWMNWVRQAPGAGLDWMGQIFPASGSTNYNEMFEGRVTLTADTSTSTAYMELSSLRAGDIAVYYCARGYGNYALDAMDYWGQGTLVTVSS VL: DIVMTQTPPSLSVSPRETASISCRASESVDSYGNSFMHWYLQKPGQSPQLLIYLASNLESGVSDRFSGSGSGTDFTLRISRVEANDTGVYYCQQNDEDPLTFGQGTK , pSmad-3, IC50 read as 1.24
